test system: transactivating tegument protein VP16 (Human herpesvirus 1), Gal4-VP16 luciferase reporter; assay: VP16 transactivation inhibitors, counter-screen for SRC3 inhibitor project, cell-based, luminescence, high throughput (AID 588794); settings: mammalian cells, VP16-driven luciferase reporter luminescence; at 3.6 µM
Calls of active or inactive are those of the source. No stated cut-off is given here; in the data, active means inhibition above about 30%; inactive means the rest.
Please state which outcome applies, choosing from active, inactive

Here's what some known entries look like.
Request: Record request — test call for C=CC[C@@H](CC(=O)N(CCO)Cc1ccccc1)C(=O)N[C@@H](C)COC(=O)[C@@H](CC=C)Cc1ccc(F)cc1
Result: inactive

Request: # lookup: test call for CCOc1ccc(-c2noc(CCC(=O)O)n2)cc1
Result: inactive

Request: Which outcome was entered for the compound CCOc1ccccc1-n1c(SCC(=O)Nc2ccccc2C(=O)O)nc2ccccc2c1=O in this test?
Result: inactive

Now for a further compound.
Request: Recorded test call requested for CCOC(=O)C1=C(C)N[C@@]2(O)c3ccccc3C(=O)[C@@]12O
Result: inactive

---

target: Steroidogenic factor 1 (Homo sapiens) (UniProt Q13285); assay: SF1 (NR5A1) inverse agonists, counter-screen for LRH-1 inverse agonist project, cell-based, luminescence, high throughput (AID 651614); conditions: cell-based SF1 luciferase reporter, at 3.6 µM, active compounds read high;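 further: cells cotransfected with StAR promoter reporter and SF1 expression vector; 0% = vehicle on cells with receptor and 100% = vehicle on cells lacking receptor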
Sequence (Q13285 whole entry, looked up): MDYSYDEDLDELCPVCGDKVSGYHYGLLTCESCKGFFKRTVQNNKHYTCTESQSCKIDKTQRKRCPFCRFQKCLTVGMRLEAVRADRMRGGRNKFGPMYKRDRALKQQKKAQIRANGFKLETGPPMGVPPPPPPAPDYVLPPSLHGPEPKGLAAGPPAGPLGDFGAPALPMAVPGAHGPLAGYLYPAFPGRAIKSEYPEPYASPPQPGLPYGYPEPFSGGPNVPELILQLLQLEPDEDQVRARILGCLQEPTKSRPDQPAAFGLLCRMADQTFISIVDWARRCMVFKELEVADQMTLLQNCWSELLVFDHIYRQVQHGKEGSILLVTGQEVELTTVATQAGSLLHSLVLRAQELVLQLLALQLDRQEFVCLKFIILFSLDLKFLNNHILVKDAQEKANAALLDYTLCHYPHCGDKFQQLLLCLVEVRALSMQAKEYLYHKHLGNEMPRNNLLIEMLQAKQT
Please mark met if the recorded inhibition is equal to or greater than 70%, and not met if it falls below.

Previously resolved entries follow.
Request: # check: inhibition of Cc1ccc2[nH]c3c(c2c1)CCCC3NC(=O)CCl (stereo unspecified) is greater than or equal to 70%
Result: met

Request: Is it the case that CC(=O)Nc1cc(-c2cccnc2)cn2c(-c3ccc(F)cc3)cnc12 has inhibition reaching or exceeding 70%?
Result: not met

Request: Form field: inhibition at least 70%? Entry: Cc1ccc(S(=O)(=O)/N=C(\CCl)N2CCOCC2)cc1
Result: not met

Request: Can Cc1cc(Br)ccc1NC(=O)CN1C(=O)CCC1=O be said to have inhibition at or above 70%?
Result: met

Request: Does the reported inhibition for CCCCCC[n+]1ccccc1/C=C/c1ccc(N(C)C)cc1 fall at or above the 70% mark?
Result: met

Request: Confirm if inhibition reported for the molecule COc1ccc2[nH]c3c(C)c4cc[n+](C)cc4c(C)c3c2c1 is 70% or above.
Result: not met

Request: inhibition >= 70% for NC(=O)[C@H]1CC2(CC(c3cccc(NC(=O)COc4ccc(Cl)cc4)c3)=NO2)CN1C(=O)Cc1ccc([N+](=O)[O-])cc1 (stereo partly specified) ?
Result: not met

Request: Record CCOC(=O)c1c(N)n(CCOC(=O)c2cccs2)c2nc3ccccc3nc12 ; criterion: inhibition no lower than 70%. Met?
Result: not met

New cases:
Request: Is reported inhibition greater than or equal to 70% here: CC(=O)NC(c1ccc(Cl)cc1)c1ccc2cccnc2c1O (stereo unspecified)
Result: met

Request: Does C#Cc1cc(N2CCN(C(=O)c3ccoc3)CC2)n2nc(-c3cccc(Cl)c3)cc2n1 have a reported inhibition of at least 70%?
Result: not met

Request: Assess whether reported inhibition for COc1ccc(OC)c(NC(=S)NCc2cccnc2)c1 sits at 70% or higher.
Result: not met

Request: Evaluate Nc1ccc(S(=O)(=O)NNC(=O)C(=O)NNc2ccccc2)cc1 : inhibition at minimum 70%?
Result: not met

Request: Is it the case that COc1cc([N+](=O)[O-])ccc1NC(=O)Cn1ccsc1=N has inhibition reaching or exceeding 70%?
Result: not met

Request: Reported inhibition at or above 70%? Cc1ccsc1CNc1ncnc2ccc(-c3c(C)noc3C)cc12
Result: not met

Request: Does the molecule O=C(CSc1nc2ccccc2c(=O)n1-c1ccc(Cl)c(Cl)c1)Nc1ccc2c(c1)CCC2 have recorded inhibition that is 70% or more?
Result: not met

Request: Item Cc1ccc(/C=C/c2ccc(N(C)C)cc2)[n+](C)c1 with inhibition of 70% or above?
Result: met

Request: Determine whether this molecule has inhibition no lower than 70%: O=C(Nc1ccc(N2CCN(C(=O)c3ccccc3)CC2)cc1)c1ccc2c(c1)OCO2
Result: met

Request: API: above_or_equal(metric=inhibition, cutoff=70%) for item Cc1ccc(S(=O)(=O)Nc2cc(Cl)c(O)c3ncccc23)cc1
Result: not met

Request: Check if inhibition >= 70% (inclusive). Item: Cn1c(=O)c2cc(NC(=O)CCc3ccc(O)cc3)ccc2n1Cc1cccc(C(F)(F)F)c1
Result: met

Request: Does the reported inhibition for CCN1/C(=C/c2ccc3cc(C)ccc3[n+]2CC)Sc2cc(C)ccc21 fall at or above the 70% mark?
Result: met

Request: I'd appreciate it if you could say whether O=[N+]([O-])c1cccc(-c2nc(-c3cccs3)c(-c3cccs3)[nH]2)c1 has inhibition at least equal to 70%.
Result: not met

---

Below, each entry is listed with its recorded inhibition.
biological target: Nuclear receptor coactivator 3 (Homo sapiens) (UniProt Q9Y6Q9); assay: SRC3 coactivator transcriptional activity inhibitors, confirmation, cell-based, luminescence, quadruplicate (AID 588792); conditions: HEK293 GAL4-SRC3 luciferase reporter, at 3.6 µM, active compounds read high;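 further: 0% = DMSO treated cells and 100% = gossypol at 36 µM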
Sequence (Q9Y6Q9 whole entry, looked up, the tested form may be a part): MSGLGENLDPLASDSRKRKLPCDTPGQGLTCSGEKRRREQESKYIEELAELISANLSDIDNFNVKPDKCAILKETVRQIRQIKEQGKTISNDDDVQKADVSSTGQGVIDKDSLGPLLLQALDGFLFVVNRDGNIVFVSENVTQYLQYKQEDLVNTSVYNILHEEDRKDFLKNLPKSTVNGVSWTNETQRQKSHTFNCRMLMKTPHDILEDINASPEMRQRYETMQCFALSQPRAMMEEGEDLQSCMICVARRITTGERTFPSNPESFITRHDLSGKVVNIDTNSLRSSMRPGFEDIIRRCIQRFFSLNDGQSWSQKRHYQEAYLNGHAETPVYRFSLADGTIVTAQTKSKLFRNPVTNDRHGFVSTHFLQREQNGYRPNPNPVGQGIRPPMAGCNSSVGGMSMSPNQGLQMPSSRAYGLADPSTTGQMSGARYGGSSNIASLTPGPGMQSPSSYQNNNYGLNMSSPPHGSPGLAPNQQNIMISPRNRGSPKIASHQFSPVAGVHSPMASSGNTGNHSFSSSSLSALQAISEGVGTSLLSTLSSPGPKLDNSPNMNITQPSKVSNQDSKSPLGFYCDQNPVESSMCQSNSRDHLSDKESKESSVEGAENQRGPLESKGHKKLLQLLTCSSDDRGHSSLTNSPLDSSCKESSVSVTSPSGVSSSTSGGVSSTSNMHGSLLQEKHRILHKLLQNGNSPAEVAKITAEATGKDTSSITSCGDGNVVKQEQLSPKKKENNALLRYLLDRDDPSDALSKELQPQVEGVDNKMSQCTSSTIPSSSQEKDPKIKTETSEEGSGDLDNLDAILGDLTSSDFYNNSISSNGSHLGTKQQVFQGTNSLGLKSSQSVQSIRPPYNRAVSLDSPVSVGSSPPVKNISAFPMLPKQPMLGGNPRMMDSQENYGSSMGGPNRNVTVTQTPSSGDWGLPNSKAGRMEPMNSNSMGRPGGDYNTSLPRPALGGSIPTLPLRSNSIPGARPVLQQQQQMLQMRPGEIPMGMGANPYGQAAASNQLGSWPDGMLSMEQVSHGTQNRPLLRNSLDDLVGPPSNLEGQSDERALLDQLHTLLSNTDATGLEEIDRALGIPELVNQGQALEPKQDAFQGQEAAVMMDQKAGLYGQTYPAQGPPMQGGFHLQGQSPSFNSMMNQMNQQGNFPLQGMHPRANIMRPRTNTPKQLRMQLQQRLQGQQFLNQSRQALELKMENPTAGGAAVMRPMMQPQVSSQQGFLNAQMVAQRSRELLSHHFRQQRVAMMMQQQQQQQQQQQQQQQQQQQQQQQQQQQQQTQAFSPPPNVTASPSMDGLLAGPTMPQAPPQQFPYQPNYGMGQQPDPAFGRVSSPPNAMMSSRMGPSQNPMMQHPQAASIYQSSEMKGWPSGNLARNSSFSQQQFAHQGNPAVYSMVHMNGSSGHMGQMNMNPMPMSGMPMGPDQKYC
A number alone suffices; assume %.

Request: Find the recorded inhibition belonging to N=c1c2c(-c3ccccc3)c(-c3ccccc3)n(Cc3ccco3)c2ncn1CCO and report it.
Result: 23.5

Request: Looking for the measured inhibition of CC1=C(C(=O)N(C)C)CC(CC(=O)NCCCCc2ccccc2)C(=O)N1Cc1ccc(C(C)(C)C)cc1 (configuration not stated) , can you help?
Result: -10.1

Request: Entry CC1CCc2c(sc(NC(=O)c3ccco3)c2C(=O)O)C1 (configuration not stated) has what inhibition?
Result: 18.1

Request: What measured inhibition goes with Cc1ccc(N=Nc2ccc3ccccc3c2O)cc1 ?
Result: 30.8

Request: # get_value(readout='inhibition', item= CCn1ccnc1CN(C)Cc1cn[nH]c1-c1ccc(OC)c(F)c1 )
Result: 36.8

Request: Value lookup for inhibition; key = CCCN1C=CC(=C2C(=O)c3ccccc3C2=O)C=C1
Result: 65.4

Now consider a different molecule.
Request: Name the recorded inhibition for Cc1cc(/C=C2\Cc3ccccc3C2=O)c(C)n1-c1ccccc1 .
Result: 53.5

---

inhibition values for the compounds below.
assay: VP16 transactivation reporter inhibitors, counter-screen for LRH-1 inverse agonist project, cell-based, luminescence, high throughput (AID 651615); conditions: Gal4-VP16 luciferase reporter cells, at 3.6 µM, active compounds read high
Your answer is read as %, so omit the unit and give the number.

As a guide, the following entries are already answered.
Request: Would you kindly share the measured inhibition for CCCN(CC(=O)Nc1ccccc1C)CC(=O)Nc1ccc(Br)cc1F ?
Result: 1.69

Request: # get_value(readout='inhibition', item= CCOc1ccc(NC(=O)COC(=O)c2cc([N+](=O)[O-])ccc2N2CCOCC2)cc1 )
Result: -1

Request: Requested read-out: inhibition. Entry: Cc1cc(C(=O)NC2CCCc3c2cnn3-c2ccc(C)c(C)c2)n(C)n1 (stereo unspecified)
Result: 67.1

Request: Record request: inhibition value, item O=C(CSc1nnc(Cc2cccs2)n1-c1ccccc1)Nc1ccc2c(c1)OCCO2
Result: -2.43

Request: Consider the compound shown here: Cc1ccc(/C=C/C(=O)c2c(C)cc(C)[nH]c2=O)cc1 What is its recorded inhibition?
Result: 60.4

Request: Reported inhibition for c1csc(CNc2ccc3c(c2)OCCO3)c1 : what is it?
Result: -49.8

Others:
Request: Requested read-out: inhibition. Entry: Cc1ccc(Oc2ccc(C(=O)NCc3ccncc3)cc2)cc1
Result: 52.9

Request: Recorded inhibition for CC(=O)Oc1ccc(N(C(C)=O)S(=O)(=O)c2ccccc2)c2ccccc12 , please?
Result: -3.17

Request: For the compound shown here, COc1ccc(OC)c(NC(=O)c2nnn(Cc3ccccc3C)c2N)c1 , give the reported inhibition.
Result: 57.3

Request: Recorded inhibition for Cc1ccc(/C=C/c2ccc(N(C)C)cc2)[n+](C)c1 , please?
Result: 67.4

Request: Which measured inhibition value corresponds to O=C(COc1ccc(S(=O)(=O)N2CCCC2)cc1Cl)Nc1ccc2c(c1)OCO2 ?
Result: -9.34

---

Catalogue of inhibition readings, one per entry.
biological target: Steroidogenic factor 1 (Homo sapiens); assay: SF1 (NR5A1) inverse agonists, counter-screen for LRH-1 inverse agonist project, cell-based, luminescence, high throughput (AID 651614); details: cell-based SF1 luciferase reporter, at 3.6 µM, active compounds read high;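 further: cells cotransfected with StAR promoter reporter and SF1 expression vector; 0% = vehicle on cells with receptor and 100% = vehicle on cells lacking receptor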
Report the value in % with no unit label.

Please review the following examples before continuing.
Request: Quick one: inhibition for CCN1CCN(c2ccc(S(=O)(=O)N3CCCCC3)cc2NC(=O)/C=C/c2ccc([N+](=O)[O-])cc2)CC1 ?
Result: 49.4

Request: GET /values?readout=inhibition&item= O=C(Nc1nc(-c2cccs2)cs1)c1ccc([N+](=O)[O-])o1
Result: 62.9

Request: Entry CCc1c(C)nc2ncnn2c1NCCc1ccc(OC)cc1 has what inhibition?
Result: 66.2

Request: Recorded inhibition for Cc1nn(-c2ccccc2)c(C)c1NC(=O)CCl , please?
Result: 61.1

Request: Consider the compound shown here: N#Cc1c(N)c(C#N)c(-c2ccc(O)cc2)c2c1CCCC2 What is its recorded inhibition?
Result: 53.8

More entries:
Request: Value lookup for inhibition; key = COc1ccccc1-c1nnc(Sc2nc([N+](=O)[O-])nn2C)o1
Result: 38.3

Request: What value of inhibition has been reported for the following compound? Cc1ccc(NC(=O)COC(=O)C(NS(=O)(=O)c2ccc(Cl)cc2)C(C)O)c(Br)c1 (stereo not given)
Result: 57.6

Request: # inhibition lookup, item CCc1ccc(/C=C/c2c[nH]c3ccccc23)[n+](CC)c1
Result: 74

Request: For the compound shown here, Cc1ccc2cccc(OCC(=O)NCCC3=CCCCC3)c2n1 , give the reported inhibition.
Result: 58.1
